B1: TRIM63 (parent)
chain: QRITQEQEKKLSFIEALIQQYQEQ

variants of: B1; assay: protein stability index of a GFP-peptide fusion (GPS, HEK-293T) (PSI 1-6); higher = more stable; settings: c terminus: a fixed tail appended;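 note: lentivirally expressed fusions sorted by FACS into six bins by GFP to DsRed ratio, PSI derived from sequencing read proportions per bin multiplied by bin number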
Measured protein stability index, listed per entry for reference.
Just the number, please.

Examples from the recorded data:
K9M; 2.44
E15D; 2.19
S12C; 2.25
E6N; 1.73
Q5I; 2.39
Q24W; 1.46

`Q5S` has a reported protein stability index of 2.17

# protein stability index of `I18M` = 2.22

Short answer for `Q24D` : protein stability index was 1.82

Quick note, protein stability index for `Q19F` landed at 1.91

protein stability index reported for this variant `Q22H` : 2.52

So for `E23W` , the logged protein stability index turned out to be 2.1

Sure, the documented protein stability index for `R2T` is 2.42

Note to self: protein stability index recorded for `Q24V` was 2.24

Item: `A16D` | protein stability index: 3.16

protein stability index reading for `E15K` : 2.11

The recorded protein stability index for `I3Y` is 2.16

GET /value?item= `Q20T` &field=protein stability index returns 2.67
